assayMethodText: Pharmacokinetics and oral bioavailability of D11.2 in male SD rats (IV, PO, SQ)
Format: in vivo
protocolConditions: male, Sprague Dawley, rat, plasma, iv, 1 mg/kg, IV 1 mg/kg, Mean; read-out: C0
Where a SMILES comes first, the peptide text is derived from it. [ ]: non-standard residue; d: D form. NMeL = CN[C@@H](CC(C)C)C(=O)O; Sar = CNCC(=O)O
testReadout: C0 (ng/mL)
Numeric only. Scale: ng/mL

The measured C0 associated with CC[C@@H](C)[C@H]1NC(=O)[C@@H]2CCCN2C(=O)[C@@H]([C@H](C)CC)NC(=O)CN(C)C(=O)[C@H](CC(C)C)NC(=O)[C@@H](Cc2ccccc2)NC(=O)[C@H](CC(C)C)N(C)C(=O)[C@H]2CCCN2C(=O)[C@@H](CC(C)C)NC(=O)[C@H](CC(C)C)NC(=O)[C@H]2CCCN2C1=O [Design D11.2] (cyclo(L[Sar][dI]P[dI][dP]L[dL][dP][NMeL][dF])) reads 843
